experiment notes: recombinant barcode read abundance after kanamycin selection (control-corrected) (log10(CPM+1)); higher = more efficient recombination; sequences stand for … in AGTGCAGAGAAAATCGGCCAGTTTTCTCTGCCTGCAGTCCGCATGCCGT…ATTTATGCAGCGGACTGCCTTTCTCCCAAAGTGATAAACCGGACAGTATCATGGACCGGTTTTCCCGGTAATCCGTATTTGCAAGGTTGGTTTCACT; site = the 11-nt target
Catalogue of recombinant barcode read abundance (log10) values
Just the number, please.

sequence content: ACGGGACCTTGGGTTCTAACCTGTTGCAGGT [ACGGGACCTCT_LTGcore_CT_RTGcore_AC] (site ACGGGACCTCT) (LTG core: CT, RTG core: AC)
number: 0.534
//
sequence content: AAACAGTGATGGGTTCTAACCTGTTGCCTAG [AAACAGTCTAG_LTGcore_GA_RTGcore_CT] (site AAACAGTCTAG) (LTG core: GA, RTG core: CT)
number: 0.192
//
sequence content: TGATACCACTGGGTTCTAACCTGTTGCGTAG [TGATACCCTAC_LTGcore_AC_RTGcore_CT] (site TGATACCCTAC) (LTG core: AC, RTG core: CT)
number: 0.135
//
sequence content: ACGGGACATTGGGTTCTAACCTGTTGCAGAG [ACGGGACCTCT_LTGcore_AT_RTGcore_CT] (site ACGGGACCTCT) (LTG core: AT, RTG core: CT)
number: 0.0817
//
sequence content: GGGCGTGCTTGGGTTCTAACCTGTTGCCTAA [GGGCGTGCTAG_LTGcore_CT_RTGcore_TT] (site GGGCGTGCTAG) (LTG core: CT, RTG core: TT)
number: 0.104

Can you look up the measured recombinant barcode read abundance (log10) of CGGTCCCCTTGGGTTCTAACCTGTTGCCACA [CGGTCCCCTTG_LTGcore_CT_RTGcore_TG] (site CGGTCCCCTTG) (LTG core: CT, RTG core: TG) for me? 0.0539

Can you look up the measured recombinant barcode read abundance (log10) of CGGTCCCCTTGGGTTCTAACCTGTTGCCAAA [CGGTCCCCTTG_LTGcore_CT_RTGcore_TT] (site CGGTCCCCTTG) (LTG core: CT, RTG core: TT) for me? 0.0341
